Provenance of the data: ChEMBL document CHEMBL4513216

assay: Toxicity liver stage against HepG2, at 10uM
Format: cell-based
Set-up: test concentration 10 uM, cell line HepG2-A16-CD81EGFP
conditions: human, HepG2-A16-CD81EGFP cells; read-out: INHIBITION
readout: cytotoxicity at 10 µM (%)
Please respond with the number in % and leave the unit unwritten.

Completed entries (count: 6):
CCS(=O)(=O)N1C[C@@H](c2nnc(C)o2)C[C@H]2OCC[C@H]21; 1.36
CN(Cc1ccccc1)CC1(O)CCCN(Cc2ccc(F)cc2)C1=O (configuration not stated); -14.6
CCCn1ncc2c(C(=O)NC(C)Cn3cccn3)cc(C3CC3)nc21 (configuration not stated); -8.97
CNC(=O)[C@@]12CCO[C@@H]1CCN(Cc1ccc3c(c1)OCO3)C2; 1.75
CCCNC(=O)Nc1cccc2c1CCN(S(C)(=O)=O)C2; -7.92
COCC(NC1CCSCC1)c1ccnn1C (configuration not stated); 13.5

Now consider a different compound.
Request: Identify measured cytotoxicity at 10 µM associated with CC(C)C(NC(=O)c1ccc(Cl)cc1Cl)C(=O)Nc1cnn(C)c1 (configuration not stated)
Result: -2.65

---

The entries below come with measured cytotoxicity at 10 µM values attached.
assay: Toxicity liver stage against HepG2, at 10uM
Type: cell-based
Design: test concentration 10 uM, cell line HepG2-A16-CD81EGFP
conditions: human, HepG2-A16-CD81EGFP cells; read-out: INHIBITION
Just the number please, in %, no unit attached.

Solved cases below.
CCn1nc(C)c2nc(C(C)C)nc(N3CCCCC3)c21; -7.67
Cc1cnn(CC2CCCN2C(=O)c2n[nH]c(=O)c3ccccc23)c1 (stereo unspecified); -21.9
O[C@H]1[C@H](NCCSc2ccccn2)c2ccccc2C12CCNCC2; -13.4
CCN1CCN(c2ccc(C(=O)NCc3cc(C)no3)cc2F)CC1; 11.2
COCc1nc(CN2CCC3(CCCO3)CCC2=O)no1 (stereo unspecified); -10.3

Request: Give recorded cytotoxicity at 10 µM. Cc1cc(Cl)c(C)c(S(=O)(=O)N2CCN(Cc3ccccn3)CC2)c1Cl
Result: -7.06

Request: Supply reported cytotoxicity at 10 µM belonging to this molecule: CCN1C(=O)CCCC12CCCN(C(=O)c1cnccn1)C2 (stereo unspecified)
Result: 2.63

Request: Output cytotoxicity at 10 µM of Cc1cn(-c2ccccc2)nc1NS(=O)(=O)c1ccc(C(=O)O)cc1
Result: -5.51

Request: Specify measured cytotoxicity at 10 µM for CCCc1ccc(C(=O)N2Cc3c(Cn4ccnc4)nn(C)c3C2)cc1 .
Result: -73

Request: Please list cytotoxicity at 10 µM recorded for the molecule CC(NC(=O)Nc1ccncc1)c1ccc2c(c1)CC(=O)N2 (stereo unspecified)
Result: -5.76

Request: Check the records and state cytotoxicity at 10 µM for CC(C)c1nc(N2CC(N3CCCCC3C)C2)c2cnn(C)c2n1 (stereo unspecified)
Result: -15.5

Request: Read the entry CS(=O)(=O)c1ccc(-c2cnc(C3CCCN3)cn2)cc1 (stereo unspecified) and write its reported cytotoxicity at 10 µM.
Result: -1.71

Request: Write down cytotoxicity at 10 µM measured for item COc1ccc(NC(=O)C(c2ccc(OC)cc2)N2CCOCC2)cc1 (stereo unspecified)
Result: -3.39

Request: Report cytotoxicity at 10 µM for CC(NC(=O)NCc1cccnc1N(C)C)c1ccc(F)cc1 (stereo unspecified)
Result: -1.19

Request: Supply reported cytotoxicity at 10 µM belonging to this molecule: COCCNC(=O)Cn1ccc2cccc(OC)c21
Result: -45.8

Request: Assign cytotoxicity at 10 µM to the following record: O=C(c1ccco1)N1CCN2C[C@H](OCc3cccnc3)C[C@H]2C1
Result: -77

---

assay: Toxicity liver stage against HepG2, at 10uM
Assay type: cell-based
Design: test concentration 10 uM, cell line HepG2-A16-CD81EGFP
conditions: human, HepG2-A16-CD81EGFP cells; read-out: INHIBITION
readout: cytotoxicity at 10 µM (%)
Lab book: enter the figure in %, no units written.

Below, each entry is followed by its recorded cytotoxicity at 10 µM result.
Cc1nccn1CCN(C)C(=O)C1CCCN(C2CCOCC2)C1 (stereo not given); 0.417
COc1ccc(C2CC(=O)Oc3cc(C)[nH]c(=O)c32)c(OC)c1 (stereo not given); -3.4
c1cncc(OCc2n[nH]c3c2CN(Cc2cccs2)C3)c1; -113
NC(=O)c1cnn2c1NCC(CNC1(c3ccccc3)CCC1)C2 (stereo not given); -8.84

Request: Provide cytotoxicity at 10 µM value for the following compound: O=C(Cc1c[nH]c(=O)[nH]c1=O)N1CCCCC1CCc1ccccc1 (stereo not given)
Result: -9.05

Request: Entry COC(=O)N1CC2=CC(C)(C)COc3ccc(OC)c(c32)C1 needs its cytotoxicity at 10 µM filled in; supply it.
Result: 5

Request: Please report the measured cytotoxicity at 10 µM for O=C(NCCCn1nc2ccccn2c1=O)NCC(C1CC1)C1CC1
Result: 6.01

Request: For the compound Cc1cn(-c2ccccc2)nc1NS(=O)(=O)c1ccc(C(=O)O)cc1F , give its measured cytotoxicity at 10 µM value.
Result: -2.59

---

assay: Toxicity liver stage against HepG2, at 10uM
Type: cell-based
Set-up: test concentration 10 uM, cell line HepG2-A16-CD81EGFP
conditions: human, HepG2-A16-CD81EGFP cells; read-out: INHIBITION
readout: cytotoxicity at 10 µM (%)
A number alone suffices; assume %.

Request: Output cytotoxicity at 10 µM of CN(Cc1cnn(C)c1)C(=O)NCc1csc(Br)c1
Result: 0.568

Request: Dear colleague, please send me the reported cytotoxicity at 10 µM for Cc1nnc(NCC(c2cccs2)N2CCCC2)c(C#N)c1C (stereo not drawn) when you can.
Result: -4.94

Request: Indicate the recorded cytotoxicity at 10 µM value for this compound: COCC1c2c(cnn2C)CCN1C(=O)c1cc(C)on1 (stereo not drawn)
Result: -79.5

Request: Supply measured cytotoxicity at 10 µM of Cc1ccc(CNCc2nccn2C)c(OC(C)(C)C)c1 in your reply.
Result: -2.58

Request: Output measured cytotoxicity at 10 µM for this item: CNc1cncc(C2CCCN2C(=O)Cn2ccnc2C)n1 (stereo not drawn)
Result: -4.31

Request: Give me measured cytotoxicity at 10 µM, please, for this compound: CCOCC1CN(C(=O)c2cccn2C)Cc2cnn(CC3CC3)c21 (stereo not drawn)
Result: 8.37

---

assay: Toxicity liver stage against HepG2, at 10uM
Format: cell-based
Parameters: test concentration 10 uM, cell line HepG2-A16-CD81EGFP
conditions: human, HepG2-A16-CD81EGFP cells; read-out: INHIBITION
Items are presented alongside their recorded cytotoxicity at 10 µM.
Give just the number in %; leave the unit off.

Request: Quick one: give measured cytotoxicity at 10 µM for Cc1noc(C)c1CN1C[C@@H]2CCCO[C@@H]2[C@H](NS(C)(=O)=O)C1
Result: 12.2

Request: # return recorded cytotoxicity at 10 µM for input Cc1cccc(CN2CCc3nnc(CN4CCCCC4)n3CC2)n1
Result: -1.45

Request: Please report cytotoxicity at 10 µM for the following molecule: Cc1cc(NCc2ccc(O)cc2)n2nc(C)cc2n1
Result: -0.881

Request: Return value of cytotoxicity at 10 µM for input COCCn1ccc2ccc(NC(=O)NCc3noc(C)n3)cc21 , no commentary.
Result: 7.36

Request: Specify reported cytotoxicity at 10 µM for the molecule shown: CCS(=O)(=O)N1CCc2ncnc(C)c2CC1
Result: -0.0192

---

assay: Toxicity liver stage against HepG2, at 10uM
Assay type: cell-based
Design: test concentration 10 uM, cell line HepG2-A16-CD81EGFP
conditions: human, HepG2-A16-CD81EGFP cells; read-out: INHIBITION
Items are presented alongside their recorded cytotoxicity at 10 µM.
# unit: % | format: bare number

Sample records with cytotoxicity at 10 µM:
CC(C)C(=O)N1CCc2c(CN(C)Cc3ccco3)cncc2C1; -5.69
CCn1cc(C(=O)N(C)Cc2c(F)cccc2Cl)cn1; -4.66
Cc1ccc2cc(C(=O)N3CCCCC3c3nc[nH]n3)ccc2n1 (configuration not stated); -5.92

Request: Give a short answer stating reported cytotoxicity at 10 µM for NS(=O)(=O)c1ccc(CC(=O)N2CCCC(n3cccn3)C2)cc1 (configuration not stated) .
Result: -0.481

Request: Please report cytotoxicity at 10 µM for the following molecule: CSc1ncccc1C(=O)N1CCC2(CC1)c1nc[nH]c1CCN2C
Result: 52.6

Request: Complete the entry with cytotoxicity at 10 µM for Cc1nc(COC[C@H]2CC[C@H]3[C@H](CCN3c3ncccn3)O2)cs1
Result: -71.2

Request: Write down cytotoxicity at 10 µM measured for item Cc1cc(C(=O)N(C)Cc2cccs2)nc(N2CCOCC2)n1
Result: 4.45

---

Listed below: cytotoxicity at 10 µM values for each entry.
assay: Toxicity liver stage against HepG2, at 10uM
Assay type: cell-based
Design: test concentration 10 uM, cell line HepG2-A16-CD81EGFP
conditions: human, HepG2-A16-CD81EGFP cells; read-out: INHIBITION
Give the number; % is assumed, so skip it.

CC(C)Sc1ccc(C(C)Nc2nc3c(cnn3C)c(=O)[nH]2)cc1 (stereo unspecified); 21.4
CCOc1cc(C)nc(N2CCN(C(C)c3nc(C)no3)CC2)n1 (stereo unspecified); -1.67
CN1CSC[C@H]1C(=O)N1CCC(Cc2ccccc2F)CC1; 1.01
CCc1nnc2ccc(NCC3(N4CCCCC4)CCOCC3)nn12; -8.39
CCc1cnc(NC(=O)NC2CCN(C)CC2)s1; -5.66
O=C([C@H]1CN(Cc2nccs2)C[C@H]2OCC[C@@H]12)N1CCCC1; -94.1
COc1ccc(OCc2noc(CN(C)C3CCS(=O)(=O)C3)n2)cc1 (stereo unspecified); 12.5
CC(C)Cn1nccc1NC(=O)CN1CCOC(Cn2cccn2)C1 (stereo unspecified); -12
CCCn1nc2c(cc1=O)CN(CCS(C)(=O)=O)CC2; -8.87
CC(=O)C(C)CC(=O)N(Cc1cccc(C)c1)C(C)C (stereo unspecified); -3.73

Request: Provide only the value of recorded cytotoxicity at 10 µM for COc1cccc(COCC(O)CN(C)c2ccc(C)cc2C)c1 (stereo unspecified)
Result: 9.66
